Reported Percentage Disease Control, Test H is given for each of the following compounds.
# System: Alternaria solani
# ASSAY_METHOD_TEXT: Test H: tomato early blight, preventive spray on tomato seedlings, disease rating
# Type: in vivo
# EXPERIMENTAL_CONTEXT: 40 ppm (*)
Marks after values point to notes of the source that are not given here.

Record excerpt, results attached:
Query: # input compound: "COC(=O)NCc1cc(-c2ccn(Cc3cccc(C#N)c3)n2)ccc1Cl" ; wanted: its Percentage Disease Control, Test H
Result: 61* %

Query: # input compound: "COC(=O)NCc1cc(-c2ccn(Cc3cccc(Cl)c3)n2)ccc1Cl" ; wanted: its Percentage Disease Control, Test H
Result: 24* %

Query: # input compound: "COC(=O)NCc1cc(-c2ccn(Cc3cccc([N+](=O)[O-])c3)n2)ccc1Cl" ; wanted: its Percentage Disease Control, Test H
Result: 14* %

Query: # input compound: "COC(=O)NCc1cc(-c2ccn(-c3ccc(C)cn3)n2)ccc1Cl" ; wanted: its Percentage Disease Control, Test H
Result: 99* %

Query: # input compound: "COC(=O)NCc1cc(-c2ccn(Cc3cc(C(F)(F)F)ccc3Cl)n2)ccc1Cl" ; wanted: its Percentage Disease Control, Test H
Result: 92* %

Query: # input compound: "COC(=O)NCc1cc(-c2ccn(Cc3ccc(C(F)(F)F)cc3)n2)ccc1Cl" ; wanted: its Percentage Disease Control, Test H
Result: 98* %

Further cases:
Query: # input compound: "COC(=O)NCc1cc(-c2ccn(-c3ccc(Cl)c(C(F)(F)F)c3)n2)ccc1Cl" ; wanted: its Percentage Disease Control, Test H
Result: 0* %

Query: # input compound: "COC(=O)NCc1cc(-c2ccn(CCc3ccccc3)n2)ccc1Cl" ; wanted: its Percentage Disease Control, Test H
Result: 89* %

Query: # input compound: "COC(=O)NCc1cc(-c2ccn(Cc3ccccc3C(F)(F)F)n2)ccc1Cl" ; wanted: its Percentage Disease Control, Test H
Result: 0* %

====

# System: Alternaria solani
# ASSAY_METHOD_TEXT: Test H: tomato early blight, preventive spray on tomato seedlings, disease rating
# Format: in vivo
# EXPERIMENTAL_CONTEXT: 40 ppm (*)
# Excerpt: The test compounds were first dissolved in acetone in an amount equal to 3% of the final volume and then suspended at the desired concentration (in ppm) in acetone and purified water (50/50 mix) containing 250 ppm of the surfactant Trem® 014 (polyhydric alcohol esters). The resulting test suspensions were then used in Tests A-L. Spraying a 200 ppm test suspension to the point of run-off on the test plants was the equivalent of an application rate of 500 g/ha. […]
Marks after values point to notes of the source that are not given here.
READOUT_LABEL: Percentage Disease Control, Test H

Query: # input compound: "COC(=O)NCc1cc(-c2ccn(-c3ccc(Br)cc3)n2)ccc1Cl" ; wanted: its Percentage Disease Control, Test H
Result: 90* %

Query: # input compound: "COC(=O)NCc1cc(-c2ccn(-c3ccccc3C(F)(F)F)n2)ccc1Cl" ; wanted: its Percentage Disease Control, Test H
Result: 60* %

Query: # input compound: "COC(=O)NCc1cc(-n2ccc(-c3cccc(Br)c3)n2)ccc1Cl" ; wanted: its Percentage Disease Control, Test H
Result: 90* %

Now for another entry.
Query: # input compound: "COC(=O)NCc1cc(-c2ccn(-c3cc(C(F)(F)F)ccn3)n2)ccc1Cl" ; wanted: its Percentage Disease Control, Test H
Result: 9* %

====

# Tested on: Erysiphe graminis f. sp. tritici
# ASSAY_METHOD_TEXT: Test A: wheat powdery mildew, preventive spray on wheat seedlings, disease rating
# Type: in vivo
# EXPERIMENTAL_CONTEXT: 40 ppm (*)
Marks after values point to notes of the source that are not given here.
READOUT_LABEL: Percentage Disease Control, Test A

Record excerpt, results attached:
Query: # input molecule: COC(=O)NOc1cc(-c2cccc(Cl)c2)ccc1Cl [Cmpd 19] ; wanted: its Percentage Disease Control, Test A
Result: 99* %

Query: # input molecule: COC(=O)NCc1cc(-c2ccn(Cc3ccc(Cl)cc3)n2)ccc1Cl [Cmpd 67] ; wanted: its Percentage Disease Control, Test A
Result: 96* %

Query: # input molecule: C#CCCCn1ccc(-c2ccc(Cl)c(CNC(=O)OC)c2)n1 [Cmpd 24] ; wanted: its Percentage Disease Control, Test A
Result: 96* %

Query: # input molecule: COC(=O)NCc1cc(-c2ccn(-c3ccc(OC)cc3)n2)ccc1Cl [Cmpd 106] ; wanted: its Percentage Disease Control, Test A
Result: 98* %

Further cases:
Query: # input molecule: COC(=O)NCc1cc(-c2ccn(-c3ccccc3C(C)=O)n2)ccc1Cl [Cmpd 54] ; wanted: its Percentage Disease Control, Test A
Result: 99* %

====

Reported Percentage Disease Control, Test H is given for each of the following compounds.
# Tested on: Alternaria solani
# ASSAY_METHOD_TEXT: Test H: tomato early blight, preventive spray on tomato seedlings, disease rating
# Type: in vivo
# EXPERIMENTAL_CONTEXT: 40 ppm (*)
Marks after values point to notes of the source that are not given here.

Query: # input compound: "COC(=O)NCc1cc(-c2ccn(-c3ccc(OC)cc3)n2)ccc1Cl" ; wanted: its Percentage Disease Control, Test H
Result: 92* %

Query: # input compound: "COC(=O)NCc1cc(-c2ccn(Cc3ccc(Cl)cc3)n2)ccc1Cl" ; wanted: its Percentage Disease Control, Test H
Result: 96* %

Query: # input compound: "COC(=O)NCc1cc(-c2ccn(-c3cccc(C)n3)n2)ccc1Cl" ; wanted: its Percentage Disease Control, Test H
Result: 99* %

Now for another entry.
Query: # input compound: "COC(=O)NCc1cc(-n2ccc(-c3ccc(Cl)cc3)n2)ccc1Cl" ; wanted: its Percentage Disease Control, Test H
Result: 97* %

====

# System: Fusarium graminearum
# Type: in vivo
# EXPERIMENTAL_CONTEXT: 200 ppm; wheat head scab
So basically every entry gets a class from its Percentage Disease Control, Test E, ranges being 1: < 30%; 2: ≥ 30% and < 90%; 3: ≥ 90%

Answered examples (2):
Query: Please let me know in which category the item "COC(=O)NCc1cc(C(C)=NOC[Si](C)(C)c2ccc(Cl)cc2)ccc1Cl" belongs.
Result: 1

Query: Please let me know in which category the item "COC(=O)NCc1cc(-c2ccn(CCC(C)C)n2)ccc1Cl" belongs.
Result: 3

Further cases:
Query: Please let me know in which category the item "C=C[Si](C)(C)CON=C(C)c1ccc(Cl)c(CNC(=O)OC)c1" belongs.
Result: 3

Query: Please let me know in which category the item "COC(=O)NCc1cc(-c2nn(CCC[Si](C)(C)C)cc2Cl)ccc1Cl" belongs.
Result: 3

Query: Please let me know in which category the item COC(=O)NCc1cc(C(C)=NOCC(C)[Si](C)(C)C)ccc1Cl (stereo not shown) belongs.
Result: 3

Query: Please let me know in which category the item "COC(=O)NCc1cc(-c2ccn(Cc3cnc(Cl)s3)n2)ccc1Cl" belongs.
Result: 2

Query: Please let me know in which category the item "COC(=O)NCc1cc(-c2ccn(Cc3cccc(C)n3)n2)ccc1Cl" belongs.
Result: 2

Query: Please let me know in which category the item "COC(=O)NCc1cc(-c2cc[nH]n2)ccc1Cl" belongs.
Result: 1

Query: Please let me know in which category the item "COC(=O)NCc1cc(-c2ccn(CCCF)n2)ccc1Cl" belongs.
Result: 3

Query: Please let me know in which category the item "COC(=O)NCc1cc(-c2ccn(C)n2)ccc1Cl" belongs.
Result: 1

Query: Please let me know in which category the item "COC(=O)NCc1cc(-c2ccn(CCC[Si](C)(C)C)n2)ccc1Cl" belongs.
Result: 3

Query: Please let me know in which category the item "COC(=O)NCc1cc(-c2cc(C(F)(F)F)n(CCC[Si](C)(C)C)n2)ccc1Cl" belongs.
Result: 1

Query: Please let me know in which category the item "CC[Si](C)(C)Cn1ccc(-c2ccc(Cl)c(CNC(=O)OC)c2)n1" belongs.
Result: 3

Query: Please let me know in which category the item "COC(=O)NCc1cc(-c2ccn(CC#N)n2)ccc1Cl" belongs.
Result: 1

Query: Please let me know in which category the item "COC(=O)NOc1cc(-c2cccc(OC(F)(F)F)c2)ccc1Cl" belongs.
Result: 3

Query: Please let me know in which category the item "COC(=O)NCc1cc(-c2ccn(CCCC(c3ccc(F)cc3)c3ccc(F)cc3)n2)ccc1Cl" belongs.
Result: 1

Query: Please let me know in which category the item "COC(=O)NCc1cc(C(C)=NOCC[Si](C)(C)C)ccc1Cl" belongs.
Result: 3

Query: Please let me know in which category the item "COC(=O)NCc1cc(-c2ccn(S(=O)(=O)N(C)C)n2)ccc1Cl" belongs.
Result: 1

Query: Please let me know in which category the item "C=C(CON=C(C)c1ccc(Cl)c(CNC(=O)OC)c1)C[Si](C)(C)C" belongs.
Result: 2
